- assayProcedure: PET hydrolysis, aromatic products released after 48 h (umol product/mg enzyme); higher = more PET depolymerization activity
- assaySetup: substrate: cryPow; 40 °C; pH 5.5
endpoint: PET hydrolysis

{"columns": ["inputSequence", "endpoint", "measured"],
 "data": [
  ["MAENPYERGPAPTTSSIEASRGSFATSTVTVSRLAVSGFGGGTIYYPTSTTAGTFGAISIAPGFTALQSSIAWLGPRLASQGFVVFTIDTLTTSDQPDSRGRQLLAALDYLTQQSSVRSRIDSSRLGVVGHSMGGGGTLEAARSRPSLQAAIPLTGWNLTKTWSTVRVPTLVVGAQADTVAPVASHSIPFYNSLPSSLDKAYLELRGASHFAPNSSNTTIAKYTLSWLKRFIDNDTRYEQFLCPIPSTSLSISDYRGNCPHNG [TEP182]", "PET hydrolysis", 6],
  ["ADNPYERGPAPTTSSIEASRGPFATASTTVSSLVSGFGGGTIYYPTSTAEGTFGAVAISPGYTGTQSSIAWLGPRIASQGFVVITIDTNTIYDQPDSRASQLLAALDYLTQSSSVRTRIDATRLGVMGHSMGGGGTLRAAESRPALQAAIPLTAWHTDKTWGNVRVPTLVIGAENDSIAPVATHSEPFYTSLPSTLDKAYLELNAADHFAPNSSNTTIAKYSISWLKRFIDNDTRYEQFLCPPPSRSLLIEEYRDTCPHS [TEP108]", "PET hydrolysis", "< 3"],
  ["AASPYERGPDPTEQTITAERGPFQVATATVPANSASGFNRGTIYYPTDTSQGTFGAVAIIPGFIEPESTMSWYGPRLASQGFVVFTLEPFSVLNFPDDRANQLLAALDYLTGSSSVRSRVDASRLAVMGHSMGGGGTLRAAEMRPSLQAAIPLAPWHLHGDWRNVRVPTMIQAADNDFIAGVGNHAQPFYQNLTNAPEKAYLLFENYGHMSWISANTPIAKYSIAWLKRYVDDDTRYSKFLCPAPGAPSSTFQEYRHTCPD [DP044]", "PET hydrolysis", "< 3"],
  ["QAPTRESLGAQGPYQVAYYSNFPAVQEFTAGTIYFPANKAQTFGAVAISPGFAERQENMSWWGRHLASHGFAVLTLDTNELRDDPAIRAEALMAALRVLSGESEREGSPLRGKIDTNRMAIMGHSMGGGGTLLAANTHSSELKAAIPFTPWQPDGDFSDVTVPTLIIAGEIDRVAPVNDHAWPHYQSLSASNPRLYLEIRGGNHFIANTAT [TEP038]", "PET hydrolysis", "< 3"],
  ["DSPYERGPDPTTSSIEASSGPFDVDEDSVSSWSVSGFGGGTVYYPEDDGQTYGGVVIAPGYTESSSAMAWLGEYLASHGFVAFNIDTNTRYDQPDSRGRQIEAALDYLAEDSDVSDLVDPNRLAAMGHSMGGGGTLAAAEDRPELKAAIPLTPWHTDKTWGGVTVPTMIIGAENDTIAPNSSHSIPFYNSLSTSTERAYVELDGEGHLVTSSRNTELASNSVSWLKVFVDEDDRYEQFLCPAPSTGWGSPYSDYRDSCPYI [DP033]", "PET hydrolysis", "< 3"]
]}

Q. Requested field: PET hydrolysis. Item: QDNSQGRYRPEGRQIGVAAGREFGERIYEVRTYETNPGIAEFADVMVFYPLTLSFDRPNGAIAFSPGFRAAADNYEWWGPALASLGYNVFILNTNEPTDDLDARADALAALVDFIKAENANPDSPVANKIDEEKIALMGHSMGGGAALAAADRLGDAVGAVIPLALYCCNPGGSFEGDYGSLSAAALVIASAEDTVAPPEAHARLLYDSLGSENKIYMEFAAGDHMFPANGGPELATMGRFTLAFLKAYLDGVAGLEQHVTSPSDEYAERFSTYLAP [TEP035]
A. < 3
